These data points were gathered from patent US20080085893A1.

Overview of reported pIC50 across a group of molecules:
target: human MMP-9 (amino acids 107-446) (Homo sapiens, UniProt P14780); construct: human MMP-9 (amino acids 107-446); made in house; test: MMP dose response assay for determining IC50, MMP-9; assay type: biochemical; conditions: recombinant enzyme, fluorescent-quench substrate 100 nM; read-out: MMP-9
Sequence (P14780 107-446): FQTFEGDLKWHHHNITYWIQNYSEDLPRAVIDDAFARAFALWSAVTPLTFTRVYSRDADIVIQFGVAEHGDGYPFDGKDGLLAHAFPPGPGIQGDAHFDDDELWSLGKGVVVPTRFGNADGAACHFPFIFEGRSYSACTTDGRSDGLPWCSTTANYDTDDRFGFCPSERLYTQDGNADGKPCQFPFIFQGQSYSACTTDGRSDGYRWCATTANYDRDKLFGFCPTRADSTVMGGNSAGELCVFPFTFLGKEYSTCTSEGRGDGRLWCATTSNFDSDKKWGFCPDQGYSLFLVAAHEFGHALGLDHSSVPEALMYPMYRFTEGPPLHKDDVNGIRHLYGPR
Units for pIC50: none; it is -log10 of a concentration expressed in mol/L.

Cc1ccc(Oc2ccc(N(C[C@H](Nc3cccc(Cl)c3)C(=O)NO)S(C)(=O)=O)cc2)cc1 ... 7.71
Cc1ccc(Oc2ccc(N(C[C@H](O)C(=O)NO)S(=O)(=O)Cc3ccncc3)cc2)cc1 ... 7.27
COc1ccc(C#Cc2ccc(N(C[C@H](O)C(=O)NO)S(C)(=O)=O)cc2)cc1 ... 7.04
COc1ccc(N[C@@H](CN(c2ccc(Oc3ccc(C)cc3)cc2)S(C)(=O)=O)C(=O)NO)cc1 ... 9.16

Identify pIC50 associated with the molecule "CS(=O)(=O)N(C[C@@H](O)C(=O)NO)c1ccc(Oc2ccccc2)cc1" 6.98

====

Biological target: human MMP-2 (amino acids 1-660) (Homo sapiens, UniProt P08253)
Construct: human MMP-2 (amino acids 1-660); made in house
Sequence (P08253 110-660): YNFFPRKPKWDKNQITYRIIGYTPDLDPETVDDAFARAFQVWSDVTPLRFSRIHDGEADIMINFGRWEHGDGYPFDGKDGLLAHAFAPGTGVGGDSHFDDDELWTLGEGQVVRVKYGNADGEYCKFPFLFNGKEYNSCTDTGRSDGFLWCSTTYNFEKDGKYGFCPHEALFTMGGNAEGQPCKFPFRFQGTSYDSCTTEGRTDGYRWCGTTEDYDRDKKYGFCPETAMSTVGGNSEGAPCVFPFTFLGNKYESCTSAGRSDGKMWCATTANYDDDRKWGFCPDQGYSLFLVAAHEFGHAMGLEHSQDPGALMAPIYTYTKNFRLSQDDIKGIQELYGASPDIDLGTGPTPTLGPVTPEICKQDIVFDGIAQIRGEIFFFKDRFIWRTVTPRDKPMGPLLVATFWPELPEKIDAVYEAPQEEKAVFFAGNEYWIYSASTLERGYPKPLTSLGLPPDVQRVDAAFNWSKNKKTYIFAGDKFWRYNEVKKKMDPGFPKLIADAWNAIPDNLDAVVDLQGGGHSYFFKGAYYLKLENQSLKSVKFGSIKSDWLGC
Assay: MMP dose response assay for determining IC50, MMP-2
Assay type: biochemical
Details: recombinant enzyme, fluorescent-quench substrate 100 nM; read-out: MMP-2
Protocol: MMP Dose Response Assay for Determining IC50 The following method was used for determining IC50 values of different inhibitor compounds against multiple MMP enzymes. […] Enzyme concentrations in the assay were determined empirically and set such that proteolytic activity was maintained in a linear range over the time-course of the experiment. […] Data was analyzed by first calculating average background value from wells that contained only substrate, and this value was subtracted from the entire plate. […]
result-type: IC50 (nM)
Reply numerically in nM, unit not repeated.

Please review the entries below; each comes with its answer.
CN1CCN([C@@H](CN(c2ccc(Oc3ccc(Cl)cc3)cc2)S(C)(=O)=O)C(=O)NO)CC1 ... 6.5
CC(C)N(CCNC(=O)OCc1ccccc1)[C@@H](CN(c1ccc(Oc2ccc(C(F)(F)F)cc2)cc1)S(C)(=O)=O)C(=O)NO ... 262
Cc1ccc(Oc2ccc(N(C[C@H](Nc3cccc(OC(F)(F)F)c3)C(=O)NO)S(C)(=O)=O)cc2)cc1 ... 1080
COc1cccc(N[C@@H](CN(c2ccc(Oc3ccc(C)cc3)cc2)S(C)(=O)=O)C(=O)NO)c1 ... 26.8
CS(=O)(=O)N(C[C@@H](C(=O)NO)N1CCC(O)CC1)c1ccc(Oc2ccc(Cl)cc2)cc1 ... 3.13

Identify IC50 associated with the compound "Cc1ccc(Oc2ccc(N(C[C@H](O)C(=O)NO)S(=O)(=O)Cc3cccnc3)cc2)cc1" 401

Identify IC50 associated with the compound "Cc1ccc(Oc2ccc(N(C[C@H](Nc3ccc(F)c(Cl)c3)C(=O)NO)S(C)(=O)=O)cc2)cc1" 431

Identify IC50 associated with the compound "CO[C@H](CN(c1ccc(Oc2ccc(C)cc2)cc1)S(C)(=O)=O)C(=O)NO" 101

Identify IC50 associated with the compound "Cc1ccc(Oc2ccc(N(C[C@H](NCCc3c[nH]c4ccccc34)C(=O)NO)S(C)(=O)=O)cc2)cc1" 41.2

Identify IC50 associated with the compound "Cc1ccc(Oc2ccc(N(C[C@H](C(=O)NO)N3CCOCC3)S(C)(=O)=O)cc2)cc1" 1320

Identify IC50 associated with the compound "Cc1ccc(Oc2ccc(N(C[C@H](Nc3cccc(Cl)c3)C(=O)NO)S(C)(=O)=O)cc2)cc1" 333
